# EXPERIMENTAL_PROTOCOL: Acute toxicity, rat
# TEST_SETTINGS: in vivo, ip, male rat

MOLECULE: Cc1cc(=O)[nH]c(SCc2ccccc2N(C)C)n1 [Example 1]
LD50 / mg/kg: 450
//
MOLECULE: CN(C)c1ccccc1C[S+]([O-])c1nc2ccccc2[nH]1 (centres unmarked) [NC-1300, reference compound]
LD50 / mg/kg: 270

----------
# EXPERIMENTAL_PROTOCOL: Acute toxicity, mouse
# TEST_SETTINGS: in vivo, ip, male mouse
LD50 values for the compounds below.

COMPOUND: Cc1cc(=O)[nH]c(SCc2ccccc2N(C)C)n1
LD50, mg/kg: 360

COMPOUND: CN(C)c1ccccc1C[S+]([O-])c1nc2ccccc2[nH]1 (centres unmarked) [NC-1300, reference compound]
LD50, mg/kg: 410

----------
# Test system: spontaneous gastric acid secretion
# EXPERIMENTAL_PROTOCOL: Gastric acid secretion-inhibiting effect according to Shay's method
# Type: in vivo, female OFA rats
# TEST_SETTINGS: 10 mg/kg p.o., vs control
# Description: After being starved for 24 hours, female OFA rats weighing 130 to 160 g were orally treated with the compounds to be tested. […] After 5 hours the animals were killed by an overdose of ether, their stomaches were excised and the volume and acid content of the gastric juice were determined. The acid was measured by titration with 0.1N NaOH, by using Topfer's indicator.
VALUE_TYPE: Gastric juice, change (%)

COMPOUND: CN(C)c1ccccc1CSc1nc(-c2ccccc2)cc(=O)[nH]1
VALUE_MEASURED: -19.6

COMPOUND: COc1ccc2[nH]c([S+]([O-])Cc3ncc(C)c(OC)c3C)nc2c1 (centres unmarked) [Omeprazole, reference compound]
VALUE_MEASURED: -20.5

COMPOUND: CN(C)c1ccccc1C[S+]([O-])c1nc2ccccc2[nH]1 (centres unmarked) [NC-1300, reference compound]
VALUE_MEASURED: -16.3

COMPOUND: CCN(C)c1ccccc1CSc1nc(C)cc(=O)[nH]1
VALUE_MEASURED: -13.7

COMPOUND: Cc1cc(=O)[nH]c(SCc2ccccc2N(C)C)n1
VALUE_MEASURED: -10.6

----------
Gastric acid, change values for the compounds below.
# Tested on: spontaneous gastric acid secretion
# EXPERIMENTAL_PROTOCOL: Gastric acid secretion-inhibiting effect according to Shay's method
# Format: in vivo, female OFA rats
# TEST_SETTINGS: 20 mg/kg p.o., vs control

COMPOUND: CN(C)c1ccccc1CSc1nc(-c2ccccc2)cc(=O)[nH]1
Gastric acid, change: -86.3%
--
COMPOUND: CCN(C)c1ccccc1CSc1nc(C)cc(=O)[nH]1
Gastric acid, change: -60.3%
--
COMPOUND: COc1ccc2[nH]c([S+]([O-])Cc3ncc(C)c(OC)c3C)nc2c1 (centres unmarked) [Omeprazole, reference compound]
Gastric acid, change: -74.7%
--
COMPOUND: CN(C)c1ccccc1C[S+]([O-])c1nc2ccccc2[nH]1 (centres unmarked) [NC-1300, reference compound]
Gastric acid, change: -58.2%
--
COMPOUND: Cc1cc(=O)[nH]c(SCc2ccccc2N(C)C)n1
Gastric acid, change: -65.1%

----------
# Test system: spontaneous gastric acid secretion
# EXPERIMENTAL_PROTOCOL: Gastric acid secretion-inhibiting effect according to Shay's method
# Assay type: in vivo, female OFA rats
# TEST_SETTINGS: 20 mg/kg p.o., vs control
Give fulfilled when the value for Gastric juice, change is at least -20%. Give not fulfilled when it is less.

COMPOUND: COc1ccc2[nH]c([S+]([O-])Cc3ncc(C)c(OC)c3C)nc2c1 (centres unmarked) [Omeprazole, reference compound]
LABEL_VALUE: not fulfilled

COMPOUND: CN(C)c1ccccc1C[S+]([O-])c1nc2ccccc2[nH]1 (centres unmarked) [NC-1300, reference compound]
LABEL_VALUE: fulfilled

COMPOUND: Cc1cc(=O)[nH]c(SCc2ccccc2N(C)C)n1
LABEL_VALUE: fulfilled

COMPOUND: CN(C)c1ccccc1CSc1nc(-c2ccccc2)cc(=O)[nH]1
LABEL_VALUE: not fulfilled

COMPOUND: CCN(C)c1ccccc1CSc1nc(C)cc(=O)[nH]1
LABEL_VALUE: fulfilled

----------
LD50 values for the compounds below.
# EXPERIMENTAL_PROTOCOL: Acute toxicity, rat
# TEST_SETTINGS: in vivo, po, male rat, precision restricted by solubility

COMPOUND: CN(C)c1ccccc1C[S+]([O-])c1nc2ccccc2[nH]1 (centres unmarked) [NC-1300, reference compound]
DISPLAY_UNIT: mg/kg
LIMIT_SIGN: =
LD50: 1300
--
COMPOUND: Cc1cc(=O)[nH]c(SCc2ccccc2N(C)C)n1
DISPLAY_UNIT: mg/kg
LIMIT_SIGN: >
LD50: 3000

----------
# EXPERIMENTAL_PROTOCOL: Acute toxicity, rat
# TEST_SETTINGS: in vivo, po, female rat, precision restricted by solubility
LD50 values for the compounds below.

COMPOUND: Cc1cc(=O)[nH]c(SCc2ccccc2N(C)C)n1
LD50: 2400 mg/kg
//
COMPOUND: CN(C)c1ccccc1C[S+]([O-])c1nc2ccccc2[nH]1 (centres unmarked) [NC-1300, reference compound]
LD50: 1400 mg/kg

----------
# EXPERIMENTAL_PROTOCOL: Acute toxicity, mouse
# TEST_SETTINGS: in vivo, po, female mouse, precision restricted by solubility

COMPOUND: CN(C)c1ccccc1C[S+]([O-])c1nc2ccccc2[nH]1 (centres unmarked) [NC-1300, reference compound]
LD50: > 1000 mg/kg
--
COMPOUND: Cc1cc(=O)[nH]c(SCc2ccccc2N(C)C)n1
LD50: > 1000 mg/kg

----------
# EXPERIMENTAL_PROTOCOL: Acute toxicity, mouse
# TEST_SETTINGS: in vivo, ip, female mouse
LD50 values for the compounds below.

COMPOUND: CN(C)c1ccccc1C[S+]([O-])c1nc2ccccc2[nH]1 (centres unmarked) [NC-1300, reference compound]
LD50 [mg/kg]: 415

COMPOUND: Cc1cc(=O)[nH]c(SCc2ccccc2N(C)C)n1
LD50 [mg/kg]: 365
